Molecular target: human Siglec-7 expressed on human cells (primary monocytes, dendritic cells, macrophages, NK cells, … (human, UniProt Q9Y286 19-467))
Sequence (Q9Y286 19-467): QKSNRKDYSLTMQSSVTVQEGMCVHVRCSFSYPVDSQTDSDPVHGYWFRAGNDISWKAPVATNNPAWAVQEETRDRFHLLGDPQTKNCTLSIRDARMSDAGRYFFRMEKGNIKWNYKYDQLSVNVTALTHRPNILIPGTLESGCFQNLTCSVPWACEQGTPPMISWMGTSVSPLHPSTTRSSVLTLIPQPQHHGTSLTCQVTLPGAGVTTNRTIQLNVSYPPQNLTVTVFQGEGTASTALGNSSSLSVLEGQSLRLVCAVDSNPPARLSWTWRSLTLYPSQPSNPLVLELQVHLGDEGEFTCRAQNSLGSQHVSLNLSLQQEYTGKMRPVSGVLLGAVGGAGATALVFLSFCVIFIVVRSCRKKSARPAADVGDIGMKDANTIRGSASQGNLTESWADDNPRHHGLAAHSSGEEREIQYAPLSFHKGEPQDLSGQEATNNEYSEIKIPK
Assay: cell-based or functional assay
One threshold, 90%, splits the recorded Percent Siglec-7 Surface Expression, U937 cells values: lower ones are Condition met, equal or higher ones are Condition not met.

Example entries begin here.
>  <binder>
anti-Siglec-7 antibody 10G8 (antibody, V domains shown, Variable domains assembled from FR and CDR entries) VH: EVKLVEFGGALVKPGGSLKLSCAALGFTFSTYAMFRVRQTPEKREEGVASISSGGRYTYYPDSAKDRHPIFRDNARNTLYLQMSSLRSKDTAMYYCVRHSYGSSYWYLDVWGAGTTVTVSS VL: DIQMTQFPATLSGTPGDRVZLSRRASQSIREYLHWYQQKSHESPRLZIKFASQSICGIPSRFSGSGSGSDFTLSINTVEPEDVGVYYCQKAHNFPYTFGGGTKLEIK

>  <classification>
Condition met

$$$$
>  <binder>
anti-Siglec-7 antibody 2G1 (antibody, V domains shown, Variable domains assembled from FR and CDR entries; the printed VL FR1 looks shortened at its N-terminus; also called 2G11 (misprint in text)) VH: EVKLVESGGTLVKPGGSLKISCAASGFTFSNYDMSWVRQNPEKRLEWVATISSGGDYTYYPDIFKGRFTISRDDAKNALYLQMSSLRSEDTALYYCARHGYGNYDWYFDVWGAGATVTVSS VL: VLTQSPAIMSASPGEKVTMTCSANSSFIYMYWYQQKPGSSPRLLIFDTSNLASGVPIRFSGSGSGTSYSLTISRMEAEDTATYYCQQWSSSPLTFGGGTKLELK

>  <classification>
Condition not met

$$$$

Prompt line: Strictly below 90%: is that where Percent Siglec-7 Surface Expression, U937 cells of anti-Siglec-7 antibody 7E11 (antibody, V domains shown, Variable domains assembled from FR and CDR entries) VH: QVQLKQSGPVLVAPSQSLSITCTVSGFSLSNYGVHWVRQFPGKGLEWLGVIWAGGITNYNSVLMSRLSISKDNSKSQVFLKMNSLQTDDTAMYYCAKQGGTSFSYWGQGTLVTVSA VL: DIQMTQSPASQSASLGESVTITCLASQTIGTWLAWYQQKPGKSPQLLIYAATSLADGVPSRFSGSGSGTKFSFKISSLQAEDFVSYYCQQLYSTPYTFGGGTKLEIK sits?
Response line: Condition met

Prompt line: Strictly below 90%: is that where Percent Siglec-7 Surface Expression, U937 cells of anti-Siglec-7 antibody 7F12 (antibody, V domains shown, Variable domains assembled from FR and CDR entries) VH: QVQLQQSGSELRSPGSSVKLSCKDFDSEVFPITYMNWVRQKPGHGFEWIGDILPSIGRTMYGEKFEDKATLDADTVSNTAYLELNSLTSEDSAIYYCARSEGYLLAYWGQGTLVTVSA VL: DVLMTQTPLSLPVSLGDQASISCRSSQSLVHSTGNTYLHWYLQKPGQSPKLLIYKVSNRFSGVPDRFSGSGAGTDFTLKISRVEAEDLGVYFCSQNTHVPYTFGGGTKLEIK sits?
Response line: Condition met
